Property: IC50; scope: individual compounds
# tested.system: Protein-S-isoprenylcysteine O-methyltransferase (Homo sapiens)
# Sequence (O60725 whole entry): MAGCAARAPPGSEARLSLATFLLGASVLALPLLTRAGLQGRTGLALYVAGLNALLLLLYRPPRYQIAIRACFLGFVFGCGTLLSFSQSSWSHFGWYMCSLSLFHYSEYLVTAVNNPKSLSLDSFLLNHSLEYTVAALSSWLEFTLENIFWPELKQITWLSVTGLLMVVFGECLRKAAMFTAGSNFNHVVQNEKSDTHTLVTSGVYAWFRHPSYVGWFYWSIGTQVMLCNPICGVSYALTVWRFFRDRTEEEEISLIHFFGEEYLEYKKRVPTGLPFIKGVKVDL
Only the number, expressed in µM, is required.

Study these solved cases before continuing.
{"columns": ["structure.smiles", "IC50 / µM"],
 "data": [
  ["CCCCCCn1cc(CC(N)=O)c2cc(-c3ccc(C)cc3)ccc21", 7.41],
  ["NC(=O)Cc1cn(Cc2cccc(C(F)(F)F)c2)c2ccc(-c3ccc(F)c(Cl)c3)cc12", 6.17],
  ["Cc1cccc(-c2ccc3c(c2)c(CC(N)=O)cn3Cc2ccc3ccccc3c2)c1", 17.4],
  ["COc1ccccc1-c1ccc2[nH]cc(CC(N)=O)c2c1", 100],
  ["NC(=O)Cc1cn(Cc2cccc(C(F)(F)F)c2)c2ccc(-c3ccc(Oc4ccccc4)cc3)cc12", 100]
]}

Which measured IC50 belongs to "COc1ccccc1-c1ccc2c(c1)c(CC(N)=O)cn2CCCOc1ccccc1" , tested on Protein-S-isoprenylcysteine O-methyltransferase (Homo sapiens)?
100

Which measured IC50 belongs to "CCCCCCn1cc(CC(N)=O)c2cc(-c3cccc(F)c3)ccc21" , tested on Protein-S-isoprenylcysteine O-methyltransferase (Homo sapiens)?
12.9

Which measured IC50 belongs to "NC(=O)Cc1cn(CC2CC2)c2ccc(-c3cccc(F)c3)cc12" , tested on Protein-S-isoprenylcysteine O-methyltransferase (Homo sapiens)?
14.8

Which measured IC50 belongs to "Cc1cccc(-c2ccc3c(c2)c(CC(N)=O)cn3CC2CC2)c1" , tested on Protein-S-isoprenylcysteine O-methyltransferase (Homo sapiens)?
9.12

Which measured IC50 belongs to "Cc1cccc(-c2ccc3c(c2)c(CC(N)=O)cn3CC(C)C)c1" , tested on Protein-S-isoprenylcysteine O-methyltransferase (Homo sapiens)?
15.8
